# Experimental protocol: gradient 5% acetonitrile 3 min, to 50% in 2 min, to 85% in 15 min, held 3 min, 100 µL/min
# Test context: column: Zorbax Extend-C18 2.1 x 50 mm; eluents: water / acetonitrile, 0.1% formic acid
Outcome measure: RP-LC retention time

1. Cc1cccc(Cn2c(CN3CCC(C(=O)NCc4cccs4)CC3)cc3ccccc32)c1; 805 s
2. COCCN1C(=O)Cc2ccccc2C1C(=O)NC(C)C (centres undefined); 652 s
3. CC(C)CN1CCN(S(=O)(=O)c2cc(-c3nnc(C4CCCC4)o3)co2)CC1; 678 s
4. CCOc1ccc(C(=O)NCc2nnc3n2CCCC3)cc1OCC; 674 s
5. COc1ccc(-c2nc(C)cc3nn(CC(=O)Nc4cccc(OC)c4)c(=O)n23)cc1; 800 s
6. Cc1ccnc(SCC(=O)Nc2nc(-c3ccccc3)cs2)n1; 917 s
7. O=C(c1ccc(-c2noc(C3CC3)n2)cc1)N1CCCN(c2nc3ncccc3o2)CC1; 760 s
8. COc1ccccc1N1CCN(c2ncc(S(=O)(=O)c3ccc(C)c(C)c3)c(N)n2)CC1; 1020 s
9. CC(=O)Nc1ccc(NC(=O)CCNc2c(-c3ccc(F)cc3)nc3cnccn23)cc1; 630 s

----------
# Experimental protocol: gradient 5% acetonitrile 3 min, to 50% in 2 min, to 85% in 15 min, held 3 min, 100 µL/min
# Test context: column: Zorbax Extend-C18 2.1 x 50 mm; eluents: water / acetonitrile, 0.1% formic acid
Outcome measure: RP-LC retention time (s)

1) O=C(c1cn2ccccc2n1)N1CCN(c2ccc(F)cc2)CC1; 652
2) CCN(CC)CCn1c(NCc2ccc(Br)cc2)nc2ccccc21; 581
3) CC(C)Oc1ccc(CN2CCn3c(nn(CC4CC4)c3=O)C2)cc1; 761
4) COC(=O)c1cnc(N2CCN(C)CC2)c2ccccc12; 610
5) Cc1nc2nc(-c3ccc(C(C)(C)C)cc3)nn2c(C)c1CC(=O)N1CCN(CCO)CC1; 657
6) O=C(Nc1ccc2c(c1)OCCO2)C1CCCN(S(=O)(=O)Cc2ccc(Cl)cc2)C1 (stereo not given); 968
7) Clc1ccc(Cl)c(-c2ccc(CNCC3CCNCC3)o2)c1; 574
8) CNC(=O)N1CCCC(c2cccc(C(=O)NCc3ccc(N(C)C)cc3)c2)C1 (stereo not given); 607
9) COc1c(C(=O)N2CCN(CC(C)C)CC2)sc2cc(Cl)ccc12; 697
10) Cc1ccc(NC(=O)Cn2cc3c(n2)CCC(C)C3)c(Cl)c1 (stereo not given); 1110

----------
# Experimental protocol: gradient 5% acetonitrile 3 min, to 50% in 2 min, to 85% in 15 min, held 3 min, 100 µL/min
# Test context: column: Zorbax Extend-C18 2.1 x 50 mm; eluents: water / acetonitrile, 0.1% formic acid
RP-LC retention time overview
Outcome measure: RP-LC retention time (s)

1. Cc1ccc(NC(=O)N2CCCC(CC(=O)N3CCC(Cc4ccccc4)CC3)C2)cc1 (centres undefined); 1120
2. COc1ccc(OC)c(NS(=O)(=O)c2c(C)nn(-c3ccc(-c4ccc(C)cc4)nn3)c2C)c1; 1110
3. Cc1ccc(NC(=O)CSCC(=O)N2CCC(C(N)=O)CC2)cc1; 630
4. Cc1ccc(NC(=O)C2CCCN(S(=O)(=O)c3c[nH]c(C(=O)N4CCCC4)c3)C2)cc1C (centres undefined); 866
5. CC(C)NC(=O)N(CC(=O)N1CCc2sccc2C1COc1ccccc1)C(C)C (centres undefined); 892
6. O=C(c1cn(-c2cc(N3CCCCC3)ncn2)cn1)N1CCc2ccccc2C1; 973
7. O=c1nccc(SCc2ccc(Cl)cc2Cl)[nH]1; 842
8. O=C(Nc1cc(-c2cccs2)no1)C1(c2ccccc2)CC1; 1050
9. COc1ccc(Cn2nc3ccc(S(=O)(=O)N4CCOCC4)cn3c2=O)cc1; 792

----------
RP-LC retention time overview
# Experimental protocol: gradient 5% acetonitrile 3 min, to 50% in 2 min, to 85% in 15 min, held 3 min, 100 µL/min
# Test context: column: Zorbax Extend-C18 2.1 x 50 mm; eluents: water / acetonitrile, 0.1% formic acid
Outcome measure: RP-LC retention time (s)

1) Cc1nc(N2CCOCC2)c2c(C(=O)Nc3ccc(Br)cc3F)c(C)oc2n1; 976
2) Cc1cc2c(cc1S(=O)(=O)N1CCCC1C(=O)Nc1ccc(F)cc1)OCC(=O)N2 (stereo not given); 743
3) COCCN1CC2(CCN(S(=O)(=O)c3ccc(C)c(Cl)c3)CC2)C1c1ccccc1 (stereo not given); 765
4) Cc1ccc2nc(-c3ccccc3O)c(Nc3ccc(Cl)cc3)n2c1; 781
5) COc1ccc(Cl)cc1NC(=O)NCCN1CCN(S(C)(=O)=O)CC1; 564
6) CN1c2ccccc2C(=O)NC12CCN(C(=O)Nc1cccc(Cl)c1)CC2; 804
7) Cc1cc(N2CCN(S(=O)(=O)c3cc(F)ccc3F)CC2)nc(NC2CCCCC2)n1; 821
8) Cn1nnc2c(SCC(=O)NCc3ccco3)ncnc21; 631
9) O=C(NC1CC1)c1ccc(OCC2CCN(C(=O)c3ccc(C(F)(F)F)cc3)CC2)cc1; 899
10) CCNC(=O)c1cnn(-c2cc(-c3nc(C)no3)ccn2)c1C; 706
11) O=C(c1ccccc1)c1ccc(-c2ccc(O)cc2)cc1; 1000
12) Cc1cc(NC(=O)CN(C)c2nc3c(Cl)cccc3s2)no1; 809
13) Cc1ccc(CNC(=O)CCc2nc3c(C)cccc3c(=O)n2C)cc1C; 892
14) CCS(=O)(=O)c1ccc2c(c1)N(Cc1nc(-c3ccccc3)no1)C(=O)CO2; 865
15) Cc1ccc(Sc2nccnc2N2CCCC(C(=O)N3CCN(c4ccccc4)CC3)C2)cc1 (stereo not given); 1220
16) CCN(CC)c1nc2cc(C(=O)NCC3CC3)ccc2c(=O)n1Cc1ccc(C)cc1; 1090
17) Cc1ccc(CN2CCN(C3CCN(C(=O)Nc4ccc(F)c(Cl)c4)CC3)C(=O)C2=O)cc1; 849
18) CNC(=O)Nc1ccc2nc3n(c(=O)c2c1)CCCC3; 559
19) O=C(COc1ccccc1)Nc1cnc(-c2cccnc2)nc1; 678
20) Cc1cc(NC(=O)CSc2nnc(-c3c(C)nc4sccn34)n2C)no1; 588

----------
RP-LC retention time overview
# Experimental protocol: gradient 5% acetonitrile 3 min, to 50% in 2 min, to 85% in 15 min, held 3 min, 100 µL/min
# Test context: column: Zorbax Extend-C18 2.1 x 50 mm; eluents: water / acetonitrile, 0.1% formic acid
Outcome measure: RP-LC retention time (s)

1. CCOC(=O)c1c(C)c(S(=O)(=O)N2CCN(c3ccccn3)CC2)c(C)n1C; 690
2. CC(NC(=O)CCNc1c(-c2ccc(F)cc2)nc2cnccn12)c1ccccn1 (centres undefined); 578
3. Cc1cccc(NS(=O)(=O)c2cc3n(c2)CCCN(C)C3=O)c1C; 711
4. O=c1[nH]ccc2c(O)cccc12; 584
5. CCc1ccc(NC(=O)N2C[C@@H](F)C[C@H]2C(=O)N2CCc3ccccc3C2)cc1; 887
6. CCC(=O)N(C1CCOCC1)C1CCN(S(=O)(=O)c2ccc(C(C)C)cc2)CC1; 983
7. Cc1ccc(Cn2nc3c(S(=O)(=O)N4CCOCC4)cccn3c2=O)c(C)c1; 849
8. O=C(c1n[nH]c2ccccc12)N1CCC[C@H]1c1nc(-c2ccccc2)n[nH]1; 683
9. COc1ccc(Cn2nc3ccc(S(=O)(=O)N4CCC(C)CC4)cn3c2=O)cc1F; 1340

----------
# Experimental protocol: gradient 5% acetonitrile 3 min, to 50% in 2 min, to 85% in 15 min, held 3 min, 100 µL/min
# Test context: column: Zorbax Extend-C18 2.1 x 50 mm; eluents: water / acetonitrile, 0.1% formic acid
RP-LC retention time overview
Outcome measure: RP-LC retention time (s)

1. CSc1nc2cc(S(=O)(=O)N3CCCCC3)ccc2s1; 1100
2. Cc1cccc(-c2cc3n(n2)CCCN(C(=O)C2CCOC2)C3)c1 (centres undefined); 735
3. CCCn1cc(S(=O)(=O)NCc2ccccc2C)c2cccnc21; 946
4. CCc1ccc(-c2csc(Nc3ccc(Br)cn3)n2)cc1; 1330
5. CNC(=O)N1CCCC(c2cccc(C(=O)N3CCN(c4cccc(Cl)c4)CC3)c2)C1 (centres undefined); 895
6. COc1cccc(Cn2c(C(=O)N3CCC(C(=O)NCc4ccc(C)o4)CC3)cc3ccsc32)c1; 970
7. Cn1ccc2c(cc(C(=O)NCc3cccc(Br)c3)n2C)c1=O; 733
8. CCn1c(=O)c2c(cc(C)n2C)n(CC(=O)Nc2c(C)cccc2C)c1=O; 756
9. C=CCN(CC=C)c1nc(-c2ccc(Cl)cc2Cl)nc2ccccc12; 933
10. CCOc1ccc(NC(=O)c2oc3cc(C)c(Cl)cc3c2C)c2cccnc12; 893
11. Fc1ccc(-c2nnc(Cc3nc(-c4ccccc4Cl)no3)o2)cc1; 995
12. Cc1ccc2nc(-c3ccc(Cl)cc3)c(Nc3ccccc3C)n2c1; 890
13. CC1(C(=O)Nc2ccccc2)Oc2cccnc2NC1=O (centres undefined); 655
14. Cc1ccc2c(c1)N(Cc1ccc(F)cc1)N=C(C(=O)N1CCOCC1)S2(=O)=O; 839
15. CC(NC(=O)c1cn(-c2cc(-c3nc(C(C)(C)C)no3)ccn2)cn1)c1ccccc1 (centres undefined); 1100
16. CCCCN(Cc1ccco1)C(=O)Cn1nc(Cc2cccnc2)c2ccccc2c1=O; 701
17. Cc1ccc(-c2ccc(=O)n(Cc3nc(-c4ccc(OC(C)C)cc4)no3)n2)cc1; 597
18. O=c1[nH]cc(S(=O)(=O)NC2CC3CCC2C3)c(=O)[nH]1 (centres undefined); 637
19. O=C(NC1CCCCC1)c1ccc2ccnc(N3CCN(c4ccc(F)cc4)CC3)c2c1; 908
20. COc1ccc(C2(C(=O)N3CCO[C@@H](COc4ccccn4)[C@@H]3c3ccccc3)CC2)cc1; 1070
21. CC(CCNC(=O)c1ccc(NC(=O)C2=CSCCO2)cc1)N1CCCC1 (centres undefined); 600
22. CCC(C)C(NC(=O)c1ccc(Cl)cc1)C(=O)Nc1nc2ccccc2[nH]1 (centres undefined); 793
23. c1cc(-c2nc(-c3ccnc(N4CCOCC4)c3)no2)ccn1; 718
24. CC(NC(=O)c1csc(-c2ccc(N3CCCC3)nc2)n1)c1ccccn1 (centres undefined); 573
25. COc1ccc(N2CCN(C(=O)Cn3ccc4c(SCc5ccc(F)cc5)nccc43)CC2)cc1; 759
26. O=C(CN1CCCc2nc(C3CC3)ncc2C1=O)NCc1cccs1; 682
27. Cc1ccccc1-c1nc2cnccn2c1NCCC(=O)NCC(C)C; 636
28. O=C(Nc1ccc2c(c1)CCN(Cc1ncn[nH]1)C2)c1ccccc1-c1ccc(C(F)(F)F)cc1; 755
29. Cn1cc(S(=O)(=O)N2CCCCC2)cc1C(=O)Nc1ccc2c(c1)OCCO2; 917
30. CCN(CC)CCSC(=O)C(c1ccccc1)c1ccccc1; 765
31. Cc1ccc2[nH]cc(CCN3CC(C(=O)NCc4ccccc4Cl)CC3=O)c2c1 (centres undefined); 846
32. COc1ccc(-c2nccc(C3CCCN(C(=O)c4ccccc4)C3)n2)cc1 (centres undefined); 967
33. CC1CCCN(C(=O)c2cn(-c3cc(-c4nc(C5CC5)no4)ccn3)cn2)C1 (centres undefined); 887
34. CNC(=O)C1CCCN(c2nc3ncn(CC(=O)NCCc4ccc(Cl)cc4)c(=O)c3s2)C1 (centres undefined); 681
35. CCOc1ccc(-c2[nH]ncc2CNS(=O)(=O)c2ccccc2CC)cc1; 884
36. Cn1ccc(CN2CCN(Cc3ccccc3F)CC2)cc1=O; 554
37. Cc1ccc(NC(=O)CSc2nc3nc(C)cc(C)n3n2)cc1; 726
38. COc1cccc(CNc2ccc(-c3nc(-c4ccc(F)cc4)no3)cn2)c1; 1180
39. Cc1ccc(NC(=O)N2CCC3(C2)c2nc[nH]c2CCN3C)cc1 (centres undefined); 554
